system: proteases in Pelophylax esculentus skin secretion; format: in vitro ADME; settings: sample 3: HCOOH final concentration 1%; sum of all proteolytic forms; LC-HRMS; all forms = 100%
Bridges are numbered along the chain shown (N, C = ends). Where no end group is shown, it is not given here.
Label 1.0 when Proteoforms, % >= 2%; otherwise 0.0.

Prompt line: Exam item: decide whether the reported Proteoforms, % for GIFSKLGRKKIKNLLISGLKNVGKEVGMDVVRTGIDIAGCKIKGEC (disulfide 40-46) [Escul 1, Esculentin 1] is at least 2%.
Response line: 1.0

Prompt line: Reported Proteoforms, % reaches at least 2% for GXLSTLKNVAKTAGKGALQSLLNAASCKLSGQC-OH (disulfide) [Brev 2L, Brevinin 2L, natural disulfide skin peptide of Pelophylax esculentus, brevinin 2 family, 33 aa] ?
Response line: 1.0

Prompt line: Say whether GXLDSLKNFAKDAAGILLKKASCKLSGQC-OH (disulfide) [Brev 2Ra, Brevinin 2Ra, natural disulfide skin peptide of Pelophylax esculentus, brevinin 2 family, 29 aa] shows Proteoforms, % of 2% or more.
Response line: 0.0

Prompt line: Say whether GXFSKXAGKKXKNLXISGXKSVGKEVGMDVVRTGIDIAGCKIKGEC-OH (disulfide) [Escul 1R, Esculentin 1R, natural disulfide skin peptide of Pelophylax esculentus, esculentin 1 family, 46 aa] shows Proteoforms, % of 2% or more.
Response line: 1.0

Prompt line: Identify whether the reported Proteoforms, % of the following substance is 2% or greater: GXLDSLKNLAKNAAQILLNKASCKLSGQC-OH (disulfide) [Brev 2Rd, Brevinin 2Rd, natural disulfide skin peptide of Pelophylax esculentus, brevinin 2 family, 29 aa]
Response line: 1.0

Prompt line: Form field: Proteoforms, % at least 2%? Entry: GXWNTXKATGKSA ASNVAVTLLDKAKCK(LV)GEC-OH (disulfide) [Brev 2La, Brevinin 2La, natural disulfide skin peptide of Pelophylax esculentus, brevinin 2 family, 33 aa]
Response line: 1.0

Prompt line: // inclusive: Proteoforms, % at least 2%? input: FFPAFLKVAAKVVPSXXCSITKKC-OH (disulfide) [Brev 1LE, Brevinin 1LE, natural disulfide skin peptide of Pelophylax esculentus, brevinin 1 family, 24 aa]
Response line: 0.0
